The values you see were collected from patent US20030068675.

Target: T1, ZFP SBS#1369 (synthetic)
T1 chain: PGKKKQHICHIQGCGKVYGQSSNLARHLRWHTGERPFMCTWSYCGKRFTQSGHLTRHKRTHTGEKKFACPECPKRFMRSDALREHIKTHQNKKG
Assay: EMSA
Conditions: tags: MBP fusion

>  <binder>
CTGGGAGAT (dsDNA) DNA 1: CTGGGAGAT DNA 2: ATCTCCCAG

>  <Kd>
0.227 nM

$$$$
